Data provenance is patent US20230303613A1.

testedOn: WT STING (Homo sapiens, UniProt Q86WV6, H232R)
Sequence (Q86WV6 whole entry H232R): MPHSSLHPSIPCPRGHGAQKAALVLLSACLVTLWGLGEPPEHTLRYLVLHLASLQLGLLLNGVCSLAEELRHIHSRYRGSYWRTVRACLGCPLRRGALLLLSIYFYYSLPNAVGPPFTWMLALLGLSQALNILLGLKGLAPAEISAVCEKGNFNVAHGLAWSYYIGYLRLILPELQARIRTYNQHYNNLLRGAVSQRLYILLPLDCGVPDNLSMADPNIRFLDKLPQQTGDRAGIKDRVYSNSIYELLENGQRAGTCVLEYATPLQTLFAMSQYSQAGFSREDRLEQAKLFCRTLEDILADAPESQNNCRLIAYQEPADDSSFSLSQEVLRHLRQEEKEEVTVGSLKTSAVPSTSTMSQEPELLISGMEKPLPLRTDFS
assayDetails: Digitonin assay using 293T wtSTING-FL reporter cells
Type: cell-based
conditionNotes: 293T wtSTING-FL cells; 30 minutes in Digitonin buffer, then 5 hours; ISRE firefly luciferase reporter
pEC50: −log10 of the molar value.

- compound: "Nc1nc2c(ncn2[C@@H]2O[C@@H]3/C=C/P(=O)(O)O[C@H]4C[C@H](n5cnc6c(N)ncnc65)O[C@@H]4COP(=O)(O)O[C@H]3[C@H]2O)c(=O)[nH]1 [Compound 55]"
  pEC50: 6.11
- compound: "Nc1nc(N)c2ncn([C@@H]3O[C@@H]4COP(=O)(O)O[C@H]5[C@@H](O)[C@H](n6cnc7c(=O)[nH]c(N)nc76)O[C@@H]5/C=C\\P(=O)(O)O[C@H]4[C@H]3F)c2n1 [Compound 65]"
  pEC50: 5.30
- compound: "Nc1nc2c(ncn2[C@@H]2O[C@@H]3/C=C/P(=O)(O)O[C@H]4[C@@H](F)[C@H](n5cnc6c(N)ncnc65)O[C@@H]4COP(=O)(O)O[C@H]3[C@H]2F)c(=O)[nH]1 [Compound 54]"
  pEC50: 7.70
